System: T-47D breast
Assay: NCI tumour cell line growth inhibition, 48 h
measurement-label: TGI (µM)

                           structure_smiles  measurement_units  modifier  endpoint_value
0              NC(N)=NN=c1c(=O)c2ccccc2c1=O                 µM         =            50.4
1  O=C(O)c1cc2ccccc2c(Cc2c(O)c(C(=O)O)cc3ccccc23)c1O                 µM         >             100
2  CCOC(=O)NN(C(=O)OCC)c1ccc(N=Nc2ccc(OC)cc2)n1C                 µM         =            76.2
3  COC(=O)[C@H](CNC(=O)/C=C/c1ccc(OC(C)=O)c(OC(C)=O)c1)NC(=O)/C=C/c1ccc(OC(C)=O)c(OC(C)=O)c1                 µM         >             100
4             COc1cccc(N/C(C)=C2/CCOC2=O)c1                 µM         >              10
5  C=CCn1c(-c2cc(C(C)(C)C)c(O)c(C(C)(C)C)c2)cs/c1=N\C(P(=O)(O)O)P(=O)(O)O                 µM         >             100
6     Cc1c2cnccc2c(C)c2c1c1cc(O)ccc1n2C(C)C                 µM         =            6.27
7  COC(=O)c1cc(-c2ccc3ccccc3c2)[nH]c(=O)c1C#N                 µM         >             100
8  CCCNC1=C2C[C@@H](C)C[C@@H](OC)[C@@H](OC(=O)CCCN)[C@H](C)/C=C(\C)[C@@H](OC(N)=O)[C@H](OC)/C=C\C=C(/C)C(=O)NC(=CC1=O)C2=O                 µM         =            28.5
9                Cc1sc2c(c1C)C(=O)c1cccn1-2                 µM         >             100

###

System: COLO 205 colon
Assay: NCI tumour cell line growth inhibition, 48 h; in the data active = GI50 below about 0.43 µM; inactive = the rest
Classes used: true (1) = active, false (0) = inactive

>>> print(df.to_string())
                                   compound   category
0  Cc1nnc(C[C@@H]2C=C(c3ccc(Cl)cc3)c3ccccc3-n3c(C)nnc32)o1   true (1)
1  Cc1nc2ccccn2c1NC(=O)NN1C(=O)CSC1c1ccc(Cl)cc1 (stereo not given)  false (0)
2  O=C(NC1CCN(Cc2ccccc2)CC1)c1cc(-c2cccnc2)nc2ccc(Cl)cc12  false (0)
3       COc1ccc(C(=O)/C=C/c2sc(Cl)nc2Cl)cc1  false (0)
4              NC(N)=NN=c1c(=O)c2ccccc2c1=O  false (0)
5  C=CC(=O)N[C@@H]1CN(c2nc(Nc3cn(C)nc3OC)c3ncn(C)c3n2)C[C@H]1F  false (0)
6        O=c1cc(-c2ccc(Cl)cc2)[nH]c2ccccc12  false (0)
7  C[C@H]1CCC/C=C/C2CC(OC(=O)CN(C)C)CC2C(OC(=O)CN(C)C)/C=C/C(=O)O1 (stereo not given in full)   true (1)
8  COc1ccccc1-n1cnc(N)c1C(=O)c1cc(OC)c(OC)c(OC)c1  false (0)
9  Clc1ccc(-c2cc(-c3ccccc3)nc(N3CCN(CCCNc4ccnc5cc(Cl)ccc45)CC3)n2)cc1  false (0)

Data provenance is PubChem BioAssay (NCI).
